The reported numbers originate from patent US20120077731A1.

Target: T1, Human soluble IL-6R (human, UniProt P08887 20-358)
T1 construct: Soluble recombinant form; biotinylated in some assays; also called hIL-6R; human IL-6R
T1 sequence (looked up): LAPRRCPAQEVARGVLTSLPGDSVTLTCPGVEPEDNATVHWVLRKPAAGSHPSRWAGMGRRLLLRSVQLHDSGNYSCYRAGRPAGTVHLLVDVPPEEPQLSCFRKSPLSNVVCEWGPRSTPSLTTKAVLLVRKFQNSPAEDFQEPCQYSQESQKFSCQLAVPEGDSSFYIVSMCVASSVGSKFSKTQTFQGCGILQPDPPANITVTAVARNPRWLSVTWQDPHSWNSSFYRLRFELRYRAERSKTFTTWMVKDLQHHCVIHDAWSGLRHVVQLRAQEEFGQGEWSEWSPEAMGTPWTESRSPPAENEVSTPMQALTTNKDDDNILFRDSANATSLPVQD
Test: Biacore off-rate, periplasmic extract
Exercise: state measured koff for each of the binders provided.
Answers are plain numbers, in s⁻¹.

INSERT INTO results (binder, reported_measurement) VALUES
  ('IL6R05 (VHH, also called PMP32E10; not shown: C-terminal c-myc and (His)6 tags) VHH: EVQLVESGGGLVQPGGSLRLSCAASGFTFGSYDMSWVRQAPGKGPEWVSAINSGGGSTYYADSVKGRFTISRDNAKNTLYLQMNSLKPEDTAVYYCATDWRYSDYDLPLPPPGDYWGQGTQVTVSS', 0.00127);

Report koff for IL6R06 (VHH, also called PMP32E2; not shown: C-terminal c-myc and (His)6 tags) VHH: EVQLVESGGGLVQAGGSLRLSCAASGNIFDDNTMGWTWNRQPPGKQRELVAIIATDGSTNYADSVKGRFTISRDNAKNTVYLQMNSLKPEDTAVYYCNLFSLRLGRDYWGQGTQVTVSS please. 0.000886
